experiment_summary: Antiproliferative activity against human GBM43 cells cultured under pH 7.5 assessed as reduction in cell viability by measuring growth inhibition incubated for 48 hrs by MTT assay
Format: functional

{"columns": ["compound", "GI50 (µM)"],
 "data": [
  ["CC(C)=C[C@H]1C[C@H](C)[C@]2(CC[C@]3(C)C[C@H]4[C@H](C(=O)C[C@@]4(C)O)/C(=C/OCCF)[C@H](O)C[C@H]32)O1", 2.77],
  ["CC(C)=C[C@H]1C[C@H](C)[C@]2(CC[C@]3(C)C[C@H]4[C@H](C(=O)C[C@@]4(C)O)/C(=C/OCCBr)[C@H](O)C[C@H]32)O1", 0.49],
  ["CC(C)=C[C@H]1C[C@H](C)[C@]2(CC[C@]3(C)C[C@H]4[C@H](C(=O)C[C@@]4(C)O)/C(C(O)OCCCl)=C\\C[C@H]32)O1 (some centres not stated)", 2.77],
  ["CC(C)=C[C@H]1C[C@H](C)[C@]2(CC[C@]3(C)C[C@H]4[C@H](C(=O)C[C@@]4(C)O)/C(=C/OCCCl)[C@H](O)C[C@H]32)O1", 1.07],
  ["CC(C)=C[C@H]1C[C@H](C)[C@]2(CC[C@]3(C)C[C@H]4[C@H](C(=O)C[C@@]4(C)O)/C(C(O)OCCBr)=C\\C[C@H]32)O1 (some centres not stated)", 0.27],
  ["CC(C)=C[C@H]1C[C@H](C)[C@]2(CC[C@]3(C)C[C@H]4[C@H](C(=O)C[C@@]4(C)O)/C(C(O)OCCF)=C\\C[C@H]32)O1 (some centres not stated)", 2.89],
  ["CC(C)=C[C@H]1C[C@H](C)[C@]2(CC[C@]3(C)C[C@H]4[C@H](C(=O)C[C@@]4(C)O)/C(C=O)=C\\C[C@H]32)O1 [OPHIOBOLIN A]", 0.22]
]}
